The origin of these recorded values is patent US9796711B2.

For each record, write down the corresponding % Activation.
# target: ΔF508-CFTR (Homo sapiens, UniProt P13569, DEL508-508)
# Construct: host or cells: CFBE41o-, doxycycline-inducible
# Sequence (P13569 with tags, fused parts or gaps DEL508-508): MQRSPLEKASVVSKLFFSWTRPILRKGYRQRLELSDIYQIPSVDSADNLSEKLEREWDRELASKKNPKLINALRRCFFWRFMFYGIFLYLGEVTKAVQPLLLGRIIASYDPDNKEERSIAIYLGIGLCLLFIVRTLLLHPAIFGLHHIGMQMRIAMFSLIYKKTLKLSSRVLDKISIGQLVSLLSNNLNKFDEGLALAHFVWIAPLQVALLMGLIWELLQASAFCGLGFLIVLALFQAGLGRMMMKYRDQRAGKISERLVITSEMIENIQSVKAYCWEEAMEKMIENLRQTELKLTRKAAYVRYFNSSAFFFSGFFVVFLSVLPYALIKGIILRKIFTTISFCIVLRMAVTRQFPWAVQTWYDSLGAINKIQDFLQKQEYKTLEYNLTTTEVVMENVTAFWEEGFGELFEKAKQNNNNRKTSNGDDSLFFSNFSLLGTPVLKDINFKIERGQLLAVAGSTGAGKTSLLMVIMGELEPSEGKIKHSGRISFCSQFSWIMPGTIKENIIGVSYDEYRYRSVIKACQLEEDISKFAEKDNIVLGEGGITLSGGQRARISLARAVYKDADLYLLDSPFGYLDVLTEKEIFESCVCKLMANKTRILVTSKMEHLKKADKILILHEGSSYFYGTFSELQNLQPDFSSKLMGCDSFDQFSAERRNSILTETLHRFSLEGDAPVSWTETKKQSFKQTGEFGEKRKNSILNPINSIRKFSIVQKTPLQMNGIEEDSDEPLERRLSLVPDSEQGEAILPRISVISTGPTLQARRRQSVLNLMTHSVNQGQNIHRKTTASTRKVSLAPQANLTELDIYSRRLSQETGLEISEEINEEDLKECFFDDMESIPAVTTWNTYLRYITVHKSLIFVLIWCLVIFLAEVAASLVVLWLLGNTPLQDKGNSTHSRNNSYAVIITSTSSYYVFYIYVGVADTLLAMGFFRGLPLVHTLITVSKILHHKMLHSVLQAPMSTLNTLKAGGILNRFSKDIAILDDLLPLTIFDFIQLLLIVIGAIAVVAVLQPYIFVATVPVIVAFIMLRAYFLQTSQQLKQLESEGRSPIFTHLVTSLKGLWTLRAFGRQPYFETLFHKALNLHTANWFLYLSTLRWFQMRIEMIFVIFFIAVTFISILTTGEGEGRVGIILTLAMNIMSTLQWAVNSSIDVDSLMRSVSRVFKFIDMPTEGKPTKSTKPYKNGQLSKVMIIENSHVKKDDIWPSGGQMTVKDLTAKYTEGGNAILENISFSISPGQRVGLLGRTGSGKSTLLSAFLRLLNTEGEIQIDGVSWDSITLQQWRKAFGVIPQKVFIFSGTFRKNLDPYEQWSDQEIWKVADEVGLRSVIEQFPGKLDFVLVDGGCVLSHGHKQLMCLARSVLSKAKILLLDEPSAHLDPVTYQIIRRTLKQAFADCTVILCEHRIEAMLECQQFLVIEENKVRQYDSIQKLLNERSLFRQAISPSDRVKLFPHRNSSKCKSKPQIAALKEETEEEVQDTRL
# procedure-summary: CFTR cell surface levels using HRP-tagged ΔF508-CFTR expressing CFBE cells, in the presence of a co-corrector
# Format: cell-based
# test-settings: HRP-tagged ΔF508-CFTR expressing CFBE cells, in the presence of 3 μM co-corrector

Ask | Fill in the blank: the reported % Activation of `O=C(O)c1cc(OCC(F)(F)F)c2c(C3CCC3)nn(-c3ccccc3)c2n1` is ____.
Reply | 292%

Ask | Same thing, different compound: `COCC1CCN(c2cc(C(=O)O)nc3c2c(C(C)C)nn3-c2cc(C)nc(C)c2)CC1`
Reply | 260.45%

Ask | Same thing, different compound: `COCCN1CCN(C2CCN(c3cc(C(=O)O)nc4c3c(C3CCC3)nn4-c3ccc(F)cc3)CC2)CC1`
Reply | 513.5%

Ask | Same thing, different compound: `COc1cc(-n2nc(C3CCC3)c3c(N4CCC(N5CCOCC5)CC4)cc(C(=O)O)nc32)ccn1`
Reply | 359.9%

Ask | Same thing, different compound: `CN1C(=O)CO[C@H]2CN(c3cc(C(=O)O)nc4c3c(C3CCC3)nn4-c3ccccc3)C[C@@H]21`
Reply | 275.5%

Ask | Same thing, different compound: `Cc1nn(-c2ccccc2)c2nc(C(=O)O)cc(OCC3(S(C)(=O)=O)CCC3)c12`
Reply | 123%

Ask | Same thing, different compound: `CN1CCC[C@H](Oc2cc(C(=O)O)nc3c2c(C2CCC2)nn3-c2ccccc2)C1`
Reply | 196.7%

Ask | Same thing, different compound: `CC(C)c1nn(-c2cc(Cl)ccn2)c2nc(C(=O)O)cc(-c3ccc(N4CCOCC4)cc3)c12`
Reply | 298%

* * *

# target: ΔF508-CFTR (Homo sapiens, UniProt P13569, DEL508-508)
# Construct: host or cells: CFBE41o-, doxycycline-inducible
# procedure-summary: CFTR cell surface levels using HRP-tagged ΔF508-CFTR expressing CFBE cells, in the presence of a co-corrector
# Assay type: cell-based
# test-settings: HRP-tagged ΔF508-CFTR expressing CFBE cells, in the presence of 3 μM co-corrector
Rule: % Activation of 300% or more gives satisfied; anything lower gives not satisfied.

Ask | Test whether the compound `O=C(O)c1cc(OCCN2CCCCC2)c2c(C3CCC3)nn(-c3ccccc3)c2n1` records % Activation of 300% or higher.
Reply | not satisfied

Ask | Same thing, different compound: `CC(C)c1nn(-c2ccc(F)cc2)c2nc(C(=O)O)cc(N3CCN(C4CCN(C5CC5)CC4)CC3)c12`
Reply | satisfied

Ask | Same thing, different compound: `CC(C)(CO)c1nn(-c2ccccc2)c2nc(C(=O)O)cc(-c3ccc(N4CCOCC4)nc3)c12`
Reply | not satisfied

Ask | Same thing, different compound: `CC(C)c1nn(-c2cccc(N3CCCC3)c2)c2nc(C(=O)O)cc(-c3ccc(N(C)C4CCOCC4)cc3)c12`
Reply | satisfied

Ask | Same thing, different compound: `Cc1nn(-c2ccccc2)c2nc(C(=O)O)cc(N3CC4(CCCOC4)C3)c12`
Reply | not satisfied

Ask | Same thing, different compound: `CC(C)c1nn(-c2cccc(OC(F)(F)F)c2)c2nc(C(=O)O)cc(-c3ccc(N4CCOCC4)cc3)c12`
Reply | satisfied

Ask | Same thing, different compound: `O=C(O)c1cc(NC[C@@H]2CCCO2)c2c(C3CCC3)nn(-c3ccccc3)c2n1`
Reply | satisfied

* * *

# target: ΔF508-CFTR (Homo sapiens, UniProt P13569, DEL508-508)
# Construct: host or cells: CFBE41o-, doxycycline-inducible
# procedure-summary: CFTR cell surface levels using HRP-tagged ΔF508-CFTR expressing CFBE cells, intrinsic corrector capacity
# Format: cell-based
# test-settings: HRP-tagged ΔF508-CFTR expressing CFBE cells; intrinsic corrector capacity (no co-corrector); 33° C., 20 hours; read-out: EC50
# Text: Measuring CFTR Cell Surface Levels Using HRP-Tagged AF508-CFTR Expressing CFBE Cells The HRP-tagged AF508-CFTR cell assay measures the expression of CFTR-ΔF508 at the plasma membrane. […] When HRP-tagged AF508-CFTR is present at the plasma membrane, the HRP enzyme activity can be measured. The amount of CFTR-ΔF508 that can be rescued to the plasma membrane is correlated with the amount of functional enzyme that can be measured. […]
For each record, write down the corresponding pEC50.
// pEC50: -log10(molar conc.)

Ask | Fill in the blank: the reported pEC50 of O=C(O)c1cc(N2CC3(CCCCC3)C2)c2c(C3CCC3)nn(-c3ccccc3)c2n1 [compound 409] is ____.
Reply | 5.97

Ask | Same thing, different compound: O=C(O)c1cc(N2CCC(N3CCOCC3)CC2)c2c(C3CCC3)nn(-c3cccc(C(F)(F)F)c3)c2n1 [compound 826]
Reply | 6.80

Ask | Same thing, different compound: O=C(O)c1cc(N2CCC(N3CCC(F)C3)CC2)c2c(C3CCC3)nn(-c3ccc(F)cc3)c2n1 (centres unmarked) [compound 846]
Reply | 6.06

Ask | Same thing, different compound: CN1CC[C@@H](Oc2cc(C(=O)O)nc3c2c(C2CCC2)nn3-c2ccccc2)C1 [compound 650]
Reply | 5.48

Ask | Same thing, different compound: O=C(O)c1cc(N2CCOC(CO)C2)c2c(C3CCC3)nn(-c3ccccc3)c2n1 (centres unmarked) [compound 531]
Reply | 5.48

Ask | Same thing, different compound: O=C(O)c1cc(N2CCOC(C(F)(F)F)C2)c2c(C3CCC3)nn(-c3ccccc3)c2n1 (centres unmarked) [compound 596]
Reply | 6.13

Ask | Same thing, different compound: COCCC1(COc2cc(C(=O)O)nc3c2c(C2CCC2)nn3-c2ccccc2)CC1 [compound 485]
Reply | 5.97

Ask | Same thing, different compound: COCC1CCN(c2cc(C(=O)O)nc3c2c(C(C)C)nn3-c2ccnc(N3CCOCC3)c2)CC1 [compound 525]
Reply | 6.38

* * *

# target: ΔF508-CFTR (Homo sapiens, UniProt P13569, DEL508-508)
# Construct: host or cells: CFBE41o-, doxycycline-inducible
# procedure-summary: CFTR cell surface levels using HRP-tagged ΔF508-CFTR expressing CFBE cells, in the presence of a co-corrector
# Format: cell-based
# test-settings: HRP-tagged ΔF508-CFTR expressing CFBE cells, in the presence of 3 μM co-corrector; read-out: EC50
// assign yes if EC50 falls strictly below 300 nM, else no (ties count as no)

Ask | Is EC50 strictly under 300 nM for the entry `O=C(O)c1cc(OCCCN2CCCCC2)c2c(C3CCC3)nn(-c3ccccc3)c2n1` ?
Reply | no

Ask | Same thing, different compound: O=C(O)c1cc(N2CCC(C(F)CO)CC2)c2c(C3CCC3)nn(-c3ccccc3)c2n1 (stereo not drawn)
Reply | yes

Ask | Same thing, different compound: `CO[C@H]1CCCC[C@@H]1Oc1cc(C(=O)O)nc2c1c(C1CCC1)nn2-c1ccccc1`
Reply | no

Ask | Same thing, different compound: `O=C(O)c1cc(N2CCC(F)CC2)c2c(C3CCC3)nn(-c3ccccc3)c2n1`
Reply | no

Ask | Same thing, different compound: `CN(C)c1ncc(-c2cc(C(=O)O)nc3c2c(C(C)(C)C)nn3C2CCCCC2)cn1`
Reply | no

* * *

# target: ΔF508-CFTR (Homo sapiens, UniProt P13569, DEL508-508)
# Construct: host or cells: CFBE41o-, doxycycline-inducible
# procedure-summary: CFTR cell surface levels using HRP-tagged ΔF508-CFTR expressing CFBE cells, in the presence of a co-corrector
# Assay type: cell-based
# test-settings: HRP-tagged ΔF508-CFTR expressing CFBE cells, in the presence of 3 μM co-corrector
# From the text: Measuring CFTR Cell Surface Levels Using HRP-Tagged AF508-CFTR Expressing CFBE Cells The HRP-tagged AF508-CFTR cell assay measures the expression of CFTR-ΔF508 at the plasma membrane. […] When HRP-tagged AF508-CFTR is present at the plasma membrane, the HRP enzyme activity can be measured. The amount of CFTR-ΔF508 that can be rescued to the plasma membrane is correlated with the amount of functional enzyme that can be measured. […]
// assign yes (1) if % Activation falls strictly below 400%, else no (0) (ties count as no (0))

Ask | Is % Activation strictly under 400% for the entry CC(C)c1nn(-c2cccc(N(C)C)c2)c2nc(C(=O)O)cc(-c3ccc(N4CCC(C#N)CC4)nc3)c12 [compound 177] ?
Reply | no (0)

Ask | Same thing, different compound: O=C(O)c1cc(N2CCC(CCN3CCOCC3)CC2)c2c(C3CCC3)nn(-c3ccccc3)c2n1 [compound 575]
Reply | no (0)

Ask | Same thing, different compound: Cc1cccc(-n2nc(C(C)C)c3c(N4CCC(C#N)CC4)cc(C(=O)O)nc32)c1 [compound 191]
Reply | yes (1)

Ask | Same thing, different compound: O=C(O)c1cc(N2CCC3(CCCC3)CC2)c2c(C3CCC3)nn(-c3ccccc3)c2n1 [compound 452]
Reply | yes (1)

Ask | Same thing, different compound: CC(C)c1nn(-c2cc(F)cc(F)c2)c2nc(C(=O)O)cc(-c3ccc(N(C)C4CCOCC4)nc3)c12 [compound 246]
Reply | no (0)

Ask | Same thing, different compound: CC1(C)CC(c2nn(-c3ccccc3)c3nc(C(=O)O)cc(-c4ccc(N5CCC(C#N)CC5)nc4)c23)C1 [compound 430]
Reply | yes (1)

Ask | Same thing, different compound: O=C(O)c1cc(-c2ccc(N3CCN(C4CC4)CC3)nc2)c2c(C3CCC3)nn(C3CCCCC3)c2n1 [compound 868]
Reply | yes (1)
